This collection of values is drawn from patent US10213428B2.

Experiment: In vitro metabolic stability in hepatocyte incubations, mouse
Format: in vitro ADME
Conditions: hepatocytes (suspension); Mouse; predicted from hepatocyte CL intrinsic, well stirred model; read-out: CL, in vivo
measured-quantity: CLhep predicted at 1 μM (mL/min/kg)

>  <smiles-text>
CO[C@H]1COCC[C@H]1NC1CCN(C(=O)c2ncnc(NC[C@H]3CCC[C@@H](c4ccc(C)cc4)O3)c2C)CC1

>  <measured-quantity>
CLhep predicted at 1 μM

>  <meas-value>
49

$$$$

* * *

Test: In vitro plasma protein binding (equilibrium dialysis), rat
Format: in vitro ADME
Settings: pH 7.4, dialysis 2 hours at 37° C., read-out: Fraction bound (converted)
measured-quantity: fraction unbound at 2 h, 1 μM

>  <compound>
CO[C@H]1COCC[C@H]1NC1CCN(C(=O)c2ncnc(NC[C@H]3CCC[C@@H](c4ccc(C)cc4)O3)c2C)CC1 [compound I]

>  <meas-value>
0.311

$$$$
